- TARGET: human α7 nAChR (Homo sapiens, UniProt P36544)
- Sequence (P36544 23-502): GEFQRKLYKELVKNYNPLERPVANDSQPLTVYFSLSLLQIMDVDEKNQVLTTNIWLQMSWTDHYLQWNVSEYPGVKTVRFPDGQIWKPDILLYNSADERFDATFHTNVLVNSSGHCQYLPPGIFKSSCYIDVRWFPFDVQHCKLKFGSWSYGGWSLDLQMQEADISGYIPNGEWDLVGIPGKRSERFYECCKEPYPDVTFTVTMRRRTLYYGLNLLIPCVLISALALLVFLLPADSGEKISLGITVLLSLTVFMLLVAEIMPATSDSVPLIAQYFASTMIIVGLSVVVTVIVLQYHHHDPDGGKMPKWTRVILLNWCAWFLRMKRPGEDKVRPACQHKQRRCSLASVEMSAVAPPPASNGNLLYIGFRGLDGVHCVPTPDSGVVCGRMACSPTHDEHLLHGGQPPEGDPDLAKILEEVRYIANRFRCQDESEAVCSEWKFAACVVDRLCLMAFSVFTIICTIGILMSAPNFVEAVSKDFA
- MEASUREMENT PROTOCOL: FLIPR cell-based calcium flux assay for PAM activity at α7 nAChR (nicotine-evoked response)
- CONDITIONS: GH4C1 cell line stably transfected with human α7 nAChR; potentiation of nicotine-evoked calcium flux
- Experimental: The PAM activity of the compounds of the invention at the α7 nAChR may be determined using the following cell-based calcium flux assay which uses a Fluorimetric Image Plate Reader (FLIPR) (see Schroeder et al.; J. Biomolecular Screening, 1(2), p 75-80, 1996). GH4C1 cell line stably transfected with human α7 nAChR was suspended in a 384 well plate and incubated at 30° C. for 48 h in a 5% carbon dioxide atmosphere. […]
METRIC NAME: EC50

{"columns": ["COMPOUND", "TARGET", "ASSAY VALUE"],
 "data": [
  ["O=C(NCc1ccc2[nH]c(C(F)(F)F)cc2c1)c1ccc(C(F)(F)F)nc1 [Compound 1]", "human α7 nAChR (Homo sapiens, UniProt P36544)", "< 1000 nM"]
]}
